B1: Azoarcus group I ribozyme (parent)
chain: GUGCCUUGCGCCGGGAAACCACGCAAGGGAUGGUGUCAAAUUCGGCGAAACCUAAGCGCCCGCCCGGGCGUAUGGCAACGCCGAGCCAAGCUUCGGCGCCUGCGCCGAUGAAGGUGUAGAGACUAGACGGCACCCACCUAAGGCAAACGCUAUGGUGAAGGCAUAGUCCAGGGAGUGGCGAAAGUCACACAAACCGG

- Variants of: B1
- measurement_notes: reverse-splicing fitness (ratio to wild type); higher = more active; in vitro selection; Mg2+ level not given
Reported values of reverse-splicing fitness for individual entries
observable: reverse-splicing fitness

C82A A111C A120C A145G C150G C169A U176G : 0.00798
C82U A145G C150A C169A U176A : 0.0196
C82A A145C C150G C169U : 0.00817
A145C C150A C169G U176C : 0.0203
C82A A120G A145G C150U C169G : 0.0197
A120U A145U C150A C169G U176A : 0.00797
